Source listed as ChEMBL document CHEMBL5042489.

Molecular target: Serine/threonine-protein kinase 3 (Homo sapiens)
Sequence (whole entry): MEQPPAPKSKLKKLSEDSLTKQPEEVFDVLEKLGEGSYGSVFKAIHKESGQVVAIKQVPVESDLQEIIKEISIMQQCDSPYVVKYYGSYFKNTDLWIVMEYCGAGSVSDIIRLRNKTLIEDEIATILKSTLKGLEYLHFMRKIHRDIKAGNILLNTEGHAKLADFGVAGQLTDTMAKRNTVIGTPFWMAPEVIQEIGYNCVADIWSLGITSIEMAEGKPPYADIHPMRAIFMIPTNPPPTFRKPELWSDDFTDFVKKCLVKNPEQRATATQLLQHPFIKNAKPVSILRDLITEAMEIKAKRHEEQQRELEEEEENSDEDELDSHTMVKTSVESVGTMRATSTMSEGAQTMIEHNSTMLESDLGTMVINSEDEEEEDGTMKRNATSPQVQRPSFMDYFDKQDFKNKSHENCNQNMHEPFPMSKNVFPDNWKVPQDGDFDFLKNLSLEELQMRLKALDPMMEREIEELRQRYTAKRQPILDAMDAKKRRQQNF
Experiment: Inhibition of STK3 in HEK293 cells assessed as increase in YAP/TAZ-TEAD activity at 10 uM incubated for 48 hrs by Dual-Glo luciferase assay
Assay type: cell-based
The source made the active and inactive calls. The rule behind the calls is not given here.
property_label: inhibition

Worked cases, answers included:
given_smiles: Clc1cccc(-c2c[nH]c3nccc(N4CCOCC4)c23)c1
observed: Active

given_smiles: Cc1ccccc1-c1c[nH]c2ncnc(N3CCOCC3)c12
observed: inactive

given_smiles: OC1CCN(c2ncnc3[nH]cc(-c4cccc(Cl)c4)c23)CC1
observed: Active

given_smiles: NC(=O)c1cccc(-c2c[nH]c3ncnc(N4CCOCC4)c23)c1
observed: Active

Using Serine/threonine-protein kinase 3 (Homo sapiens) as the test system, report measured inhibition of `Fc1cccc(-c2c[nH]c3ncnc(N4CCOCC4)c23)c1` .
Active

Using Serine/threonine-protein kinase 3 (Homo sapiens) as the test system, report measured inhibition of `Cc1ccc(-c2c[nH]c3ncnc(N4CCOCC4)c23)cc1` .
inactive

---

Test: Drug concentration in C57BL/6 mouse liver at 10 mg/kg, ip administered for 2 hrs
Assay type: ADME, organism-based
Details: read-out: Ct
property_label: concentration at 2 h
I'd appreciate it if you wrote the number followed by its unit.

Please look at this compound and report its concentration at 2 h: `NC(=O)c1cccc(-c2c[nH]c3ncnc(N4CCOCC4)c23)c1`
2500 nM

---

Biological target: Serine/threonine-protein kinase 3 (Homo sapiens, UniProt Q13188)
Experiment: Binding affinity to recombinant N-terminal His6-tagged human STK3 (18 to 311 residues) expressed in Escherichia coli assessed as dissociation constant by isothermal titration calorimetry
property_label: Kd (nM)
Field format: number, assumed nM, no unit text.

Please look at this compound and report its Kd: `Clc1cccc(-c2c[nH]c3nccc(N4CCOCC4)c23)c1`
48

---

Assay: Drug concentration in C57BL/6 mouse liver at 10 mg/kg, ip administered for 3 hrs
Format: ADME, organism-based
Details: read-out: Ct
property_label: concentration at 3 h (nM)
Field format: number, assumed nM, no unit text.

Please look at this compound and report its concentration at 3 h: `NC(=O)c1cccc(-c2c[nH]c3ncnc(N4CCOCC4)c23)c1`
1200

---

Target: Serine/threonine-protein kinase 3 (Homo sapiens, UniProt Q13188)
property_label: IC50 (nM)
Field format: number, assumed nM, no unit text.

Worked cases, answers included:
molecule: NC(=O)c1cccc(-c2c[nH]c3ncnc(N4CCOCC4)c23)c1
property_label: IC50
observed: 303
//
molecule: Cc1cccc(-c2c[nH]c3ncnc(N4CCOCC4)c23)c1
property_label: IC50
observed: 434
//
molecule: Fc1cccc(-c2c[nH]c3ncnc(N4CCOCC4)c23)c1
property_label: IC50
observed: 373

Using Serine/threonine-protein kinase 3 (Homo sapiens, UniProt Q13188) as the test system, report measured IC50 of `N#Cc1cccc(-c2c[nH]c3ncnc(N4CCOCC4)c23)c1` .
197

Using Serine/threonine-protein kinase 3 (Homo sapiens, UniProt Q13188) as the test system, report measured IC50 of `Clc1cccc(-c2c[nH]c3ncnc(N4CCCCC4)c23)c1` .
1100

Using Serine/threonine-protein kinase 3 (Homo sapiens, UniProt Q13188) as the test system, report measured IC50 of `Clc1cccc(-c2c[nH]c3nccc(N4CCOCC4)c23)c1` .
373

---

// Serine/threonine-protein kinase 4 (Homo sapiens, UniProt Q13043) pIC50 records
Keep in mind that pIC50 stands for -log10 of concentration in molar terms.

Worked cases, answers included:
compound: CC(CO)CN(C)c1ncnc2[nH]cc(-c3cccc(Cl)c3)c12 (configuration not stated)
pIC50: 6.35

compound: Clc1cccc(-c2c[nH]c3nccc(N4CCOCC4)c23)c1
pIC50: 6.72

compound: CN(CCO)c1ncnc2[nH]cc(-c3cccc(Cl)c3)c12
pIC50: 6.39

compound: CC(=O)NC1CCN(c2ncnc3[nH]cc(-c4cccc(Cl)c4)c23)CC1
pIC50: 6.91

compound: Clc1cccc(-c2c[nH]c3ncnc(N4CCOCC4)c23)c1
pIC50: 6.49

compound: OC1CCN(c2ncnc3[nH]cc(-c4cccc(Cl)c4)c23)CC1
pIC50: 6.60

Now look at this entry.
Please look at this compound and report its pIC50: `CN1C(=O)c2sccc2N(C)c2nc(Nc3ccc(S(N)(=O)=O)cc3)ncc21`
5.98

---

Tested on: MOLM-13
Assay: Antiproliferation activity against human MOLM-13 cells incubated for 72 hrs by celltiter-glo assay
Type: functional, cell-based
Details: MOLM-13, 72 h
property_label: IC50 (µM)
Field format: number, assumed µM, no unit text.

Please look at this compound and report its IC50: `CC(=O)NC1CCN(c2ncnc3[nH]cc(-c4cccc(Cl)c4)c23)CC1`
5.8

---

Catalogue of compounds with associated pIC50
Molecular target: Serine/threonine-protein kinase 3 (Homo sapiens)
Keep in mind that pIC50 stands for -log10 of concentration in molar terms.

Worked cases, answers included:
compound: OCCCNc1ncnc2[nH]cc(-c3cccc(Cl)c3)c12
property_label: pIC50
observed: 6.76

compound: COc1cccc(-c2c[nH]c3ncnc(N4CCOCC4)c23)c1
property_label: pIC50
observed: 6.12

compound: Clc1cccc(-c2c[nH]c3ncnc(NCC4CC4)c23)c1
property_label: pIC50
observed: 6.67

compound: NC(=O)c1cccc(-c2c[nH]c3ncnc(N4CCOCC4)c23)c1
property_label: pIC50
observed: 6.63

compound: Clc1cccc(-c2c[nH]c3nccc(N4CCOCC4)c23)c1
property_label: pIC50
observed: 6.92

Using Serine/threonine-protein kinase 3 (Homo sapiens) as the test system, report measured pIC50 of `CC(=O)NC1CCN(c2ncnc3[nH]cc(-c4cccc(Cl)c4)c23)CC1` .
7.44

Using Serine/threonine-protein kinase 3 (Homo sapiens) as the test system, report measured pIC50 of `Clc1cccc(-c2n[nH]c3ncnc(N4CCOCC4)c23)c1` .
5.32

Using Serine/threonine-protein kinase 3 (Homo sapiens) as the test system, report measured pIC50 of `OC1CCN(c2ncnc3[nH]cc(-c4cccc(Cl)c4)c23)CC1` .
6.90

Using Serine/threonine-protein kinase 3 (Homo sapiens) as the test system, report measured pIC50 of `COc1ccccc1-c1c[nH]c2ncnc(N3CCOCC3)c12` .
6.64

Using Serine/threonine-protein kinase 3 (Homo sapiens) as the test system, report measured pIC50 of `CCN(CCO)c1ncnc2[nH]cc(-c3cccc(Cl)c3)c12` .
6.65

Using Serine/threonine-protein kinase 3 (Homo sapiens) as the test system, report measured pIC50 of `Cc1ccc(-c2c[nH]c3ncnc(N4CCOCC4)c23)cc1` .
5.69

Using Serine/threonine-protein kinase 3 (Homo sapiens) as the test system, report measured pIC50 of `CC1(N)CCN(c2ncnc3[nH]cc(-c4cccc(Cl)c4)c23)CC1` .
6.56

Using Serine/threonine-protein kinase 3 (Homo sapiens) as the test system, report measured pIC50 of `Fc1ccc(-c2c[nH]c3ncnc(N4CCOCC4)c23)cc1` .
6.12

Using Serine/threonine-protein kinase 3 (Homo sapiens) as the test system, report measured pIC50 of CC(CO)CN(C)c1ncnc2[nH]cc(-c3cccc(Cl)c3)c12 (centres undefined) .
7.24

Using Serine/threonine-protein kinase 3 (Homo sapiens) as the test system, report measured pIC50 of `Fc1cccc(-c2c[nH]c3ncnc(N4CCOCC4)c23)c1` .
6.72

---

Test: Drug concentration in C57BL/6 mouse plasma at 20 mg/kg, ip measured after 30 mins by LC-MS/MS analysis
Type: ADME, organism-based
property_label: concentration at 0.5 h

compound: Clc1cccc(-c2c[nH]c3nccc(N4CCOCC4)c23)c1
concentration at 0.5 h: > 1400 nM
--
compound: CNC1CCN(c2ncnc3[nH]cc(-c4cccc(Cl)c4)c23)CC1
concentration at 0.5 h: > 1400 nM
--
compound: Fc1ccc(-c2c[nH]c3ncnc(N4CCOCC4)c23)cc1
concentration at 0.5 h: > 1400 nM
--
compound: Clc1cccc(-c2c[nH]c3ncnc(N4CCOCC4)c23)c1
concentration at 0.5 h: > 1400 nM
--
compound: Fc1cccc(-c2c[nH]c3ncnc(N4CCOCC4)c23)c1
concentration at 0.5 h: > 1400 nM

Please look at this compound and report its concentration at 0.5 h: `OC1CCN(c2ncnc3[nH]cc(-c4cccc(Cl)c4)c23)CC1`
11600 nM

Please look at this compound and report its concentration at 0.5 h: `CN(CCO)c1ncnc2[nH]cc(-c3cccc(Cl)c3)c12`
> 1400 nM

Please look at this compound and report its concentration at 0.5 h: `CC1(N)CCN(c2ncnc3[nH]cc(-c4cccc(Cl)c4)c23)CC1`
> 1400 nM

Please look at this compound and report its concentration at 0.5 h: `Clc1cccc(-c2c[nH]c3ncnc(N4CCCCC4)c23)c1`
> 1400 nM

Please look at this compound and report its concentration at 0.5 h: CC(CO)CN(C)c1ncnc2[nH]cc(-c3cccc(Cl)c3)c12 (stereo not drawn)
> 1400 nM

Please look at this compound and report its concentration at 0.5 h: `OCCCNc1ncnc2[nH]cc(-c3cccc(Cl)c3)c12`
> 1400 nM

Please look at this compound and report its concentration at 0.5 h: `Cc1cccc(-c2c[nH]c3ncnc(N4CCOCC4)c23)c1`
> 1400 nM

Please look at this compound and report its concentration at 0.5 h: `NC(=O)c1cccc(-c2c[nH]c3ncnc(N4CCOCC4)c23)c1`
15900 nM
